System: Prostaglandin G/H synthase 1 (Homo sapiens, UniProt P23219) | Read-out: IC50 | Origin: multiple publications
Sequence (P23219 whole entry): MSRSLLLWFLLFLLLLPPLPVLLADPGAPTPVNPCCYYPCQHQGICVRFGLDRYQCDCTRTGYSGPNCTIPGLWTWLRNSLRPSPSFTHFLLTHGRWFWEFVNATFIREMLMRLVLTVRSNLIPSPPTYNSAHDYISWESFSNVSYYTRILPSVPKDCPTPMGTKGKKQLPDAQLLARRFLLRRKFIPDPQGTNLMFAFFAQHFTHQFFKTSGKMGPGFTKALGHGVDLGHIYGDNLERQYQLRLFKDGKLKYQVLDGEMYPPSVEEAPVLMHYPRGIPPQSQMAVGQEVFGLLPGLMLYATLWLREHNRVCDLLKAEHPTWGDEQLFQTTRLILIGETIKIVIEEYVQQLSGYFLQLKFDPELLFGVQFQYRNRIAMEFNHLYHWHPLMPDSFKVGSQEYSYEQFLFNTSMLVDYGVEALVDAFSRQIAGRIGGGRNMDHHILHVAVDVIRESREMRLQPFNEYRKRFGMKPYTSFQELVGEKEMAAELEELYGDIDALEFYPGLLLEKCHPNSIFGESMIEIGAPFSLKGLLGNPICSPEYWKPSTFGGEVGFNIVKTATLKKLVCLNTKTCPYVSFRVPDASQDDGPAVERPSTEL

>>> test_result("CC1(C)OC(=O)C(Oc2cccnc2)=C1c1ccc(S(C)(=O)=O)cc1")
"> 30 µM"
>>> test_result("O=C(O)C1=Cc2cc(S(F)(F)(F)(F)F)ccc2O[C@@H]1C(F)(F)F")
"> 30 µM"
>>> test_result("O=C(COc1cc(O)c2c(=O)cc(-c3ccccc3)oc2c1)OCc1cc(-c2ccc(Cl)c(Cl)c2)n(-c2ccccc2)n1")
"> 50 µM"

Okay, next one:
Give the value of IC50 reported for the following: CS(=O)(=O)c1ccc(-n2cc(C(F)(F)F)nc2-c2cccc3c2OCO3)cc1
> 100 µM
